Let's look at some molecules and their measured Papp.
Assay: in vitro
Details: PAMPA, pH 7.4
Observed property: Papp

{"Chem smiles": "CN[C@H](C(=O)N[C@H](C(=O)N(C)[C@H](/C=C(\\C)C(=O)N[C@H](CCC(=O)O)C(=O)O)C(C)C)C(C)(C)C)C(C)(C)c1cccc(C#N)c1", "Observed property": "Papp", "Reported result": "< 0.1 ×10⁻⁶ cm/s"}
{"Chem smiles": "CN[C@@H](C(=O)N[C@H](C(=O)N(C)[C@H](/C=C(\\C)C(=O)N[C@H](CCC(=O)O)C(=O)O)C(C)C)C(C)(C)C)C(C)(C)c1cccc(Br)c1", "Observed property": "Papp", "Reported result": "< 0.1 ×10⁻⁶ cm/s"}
{"Chem smiles": "CN[C@H](C(=O)N[C@H](C(=O)N(C)[C@H](/C=C(\\C)C(=O)N[C@@H](CS(=O)(=O)O)C(=O)O)C(C)C)C(C)(C)C)C(C)(C)c1ccccc1", "Observed property": "Papp", "Reported result": "< 0.1 ×10⁻⁶ cm/s"}

====

Test: Pharmacokinetic evaluation test using mice
Format: in vivo
Settings: mouse, plasma, iv, 1 mg/kg, single intravenous 1.0 mg/kg, 2 hr, read-out: Blood concentration, mean value

{"Chem smiles": "CN[C@H](C(=O)N[C@H](C(=O)N(C)[C@H](/C=C(\\C)C(=O)N[C@H](CCC(=O)O)C(=O)O)C(C)C)C(C)(C)C)C(C)(C)c1cn(C)c2ccccc12", "concentration at 2 hr": "0.0008 µg/mL"}
{"Chem smiles": "CN[C@H](C(=O)N[C@H](C(=O)N(C)[C@H](/C=C(\\C)C(=O)O)C(C)C)C(C)(C)C)C(C)(C)c1cn(C)c2ccccc12", "concentration at 2 hr": "0.0258 µg/mL"}

====

Assay: in vitro
Conditions: PAMPA, pH 7.4
Protocol: By the parallel artificial membrane permeability assay (PAMPA), the membrane permeability of compounds of Examples was examined as follows: To the donor plate, System solution (pION inc.) and GIT Lipid-0 (pION inc.) were added in an amount of 200 μL and 4 μL for each well, respectively. […] Both plates were superposed and incubated at 37° C. for 4 hours, and then, UVs in the solutions on the side of acceptor and on the side of donor were measured with an UV plate reader (190 to 500 nm). […]

{"Compound": "CN[C@H](C(=O)N[C@H](C(=O)N(C)[C@H](/C=C(\\C)C(=O)N[C@H](CCC(=O)O)C(=O)O)C(C)C)C(C)(C)C)C(C)(C)c1cccc(F)c1 [Example 56]", "Relational operator": "=", "Papp, ×10⁻⁶ cm/s": 0.7}
{"Compound": "CN[C@H](C(=O)N[C@H](C(=O)N(C)[C@H](/C=C(\\C)C(=O)N[C@H](CCC(=O)N[C@@H](CCCCN)C(=O)O)C(=O)O)C(C)C)C(C)(C)C)C(C)(C)c1cn(C)c2ccc(F)cc12 [Example 52]", "Relational operator": "<", "Papp, ×10⁻⁶ cm/s": 0.1}
{"Compound": "CN[C@H](C(=O)N[C@H](C(=O)N(C)[C@H](/C=C(\\C)C(=O)N[C@@H](CCC(=O)O)C(=O)O)C(C)C)C(C)(C)C)C(C)(C)c1cn(C)c2ccccc12 [Example 6]", "Relational operator": "<", "Papp, ×10⁻⁶ cm/s": 0.1}
{"Compound": "CN[C@H](C(=O)N[C@H](C(=O)N(C)[C@H](/C=C(\\C)C(=O)N[C@@H](CCC(=O)OC)C(=O)OC)C(C)C)C(C)(C)C)C(C)(C)c1cn(C)c2ccccc12 [Example 72]", "Relational operator": "<", "Papp, ×10⁻⁶ cm/s": 0.1}
{"Compound": "CN[C@H](C(=O)N[C@H](C(=O)N(C)[C@H](/C=C(\\C)C(=O)N[C@H](CCC(=O)O)C(=O)O)C(C)C)C(C)(C)C)C(C)(C)C1CCCCC1 [Example 58]", "Relational operator": "=", "Papp, ×10⁻⁶ cm/s": 9}

====

Let's look at some compounds and their measured concentration at 2 hr.
Assay: Pharmacokinetic evaluation test using mice
Assay type: in vivo
Settings: mouse, plasma, iv, 1 mg/kg, single intravenous 1.0 mg/kg, 2 hr, read-out: Blood concentration, individual mice 1-3
Method: A pharmacokinetic evaluation test was performed by single intravenous administration of Example 4 at a dose of 1.0 mg/kg to mice. A calibration curve was made from measurements of Example 4 with known concentration, and by interpolating measurements of each specimen to this, the amount of the compound contained in unit volume of each plasma was calculated using LC-MS. Pharmacokinetics of compound 14 and hemiasterlin were similarly evaluated. […]

{"Compound": "CN[C@H](C(=O)N[C@H](C(=O)N(C)[C@H](/C=C(\\C)C(=O)N[C@H](CCC(=O)O)C(=O)O)C(C)C)C(C)(C)C)C(C)(C)c1cn(C)c2ccccc12 [Example 4]", "Output unit": "ng/mL", "concentration at 2 hr": 0.7}
{"Compound": "CN[C@H](C(=O)N[C@H](C(=O)N(C)[C@H](/C=C(\\C)C(=O)O)C(C)C)C(C)(C)C)C(C)(C)c1cn(C)c2ccccc12 [Hemiasterlin, hemiasterlin]", "Output unit": "ng/mL", "concentration at 2 hr": 25.1}

====

Test: in vitro
Conditions: PAMPA, pH 7.4
*1 amine or outer side, *2 acyl side, *3 side chain or, on linkers, in order; H or OH if unused. Where a SMILES comes first, the peptide text is derived from it. [ ]: non-standard residue; d: D form. NMeTrp(1,β,β-Me3) = CN[C@H](C(=O)O)C(C)(C)c1cn(C)c2ccccc12; X1 = C/C(=C\[C@H](C(C)C)N(C)[*:1])C(=O)[*:2]; Tle = CC(C)(C)[C@H](N)C(=O)O

{"Molecule": "CN[C@H](C(=O)N[C@H](C(=O)N(C)[C@H](/C=C(\\C)C(=O)N[C@@H](CC(=O)O)C(=O)N[C@@H](CC(=O)O)C(=O)N[C@@H](CC(=O)O)C(=O)N[C@@H](CC(=O)O)C(=O)N[C@@H](CC(=O)O)C(=O)O)C(C)C)C(C)(C)C)C(C)(C)c1cn(C)c2ccccc12 [Example 3] (H-[NMeTrp(1,β,β-Me3)][Tle][X1]DDDDD-OH)", "Papp at 4 h": "< 0.1 ×10⁻⁶ cm/s"}

====

Assay: in vitro
Conditions: PAMPA, pH 7.4
*1 amine or outer side, *2 acyl side, *3 side chain or, on linkers, in order; H or OH if unused. Where a SMILES comes first, the peptide text is derived from it. [ ]: non-standard residue; d: D form. NMeTrp(1,β,β-Me3) = CN[C@H](C(=O)O)C(C)(C)c1cn(C)c2ccccc12; X1 = C/C(=C\[C@H](C(C)C)N(C)[*:1])C(=O)[*:2]; Tle = CC(C)(C)[C@H](N)C(=O)O

{"Compound": "CN[C@H](C(=O)N[C@H](C(=O)N(C)[C@H](/C=C(\\C)C(=O)N[C@H](CCC(=O)O)C(=O)O)C(C)C)C(C)(C)C)C(C)(C)c1cn(C)c2ccccc12 [Example 4]", "Output unit": "×10⁻⁶ cm/s", "Relational operator": "<", "Papp": 0.1}
{"Compound": "CN[C@H](C(=O)N[C@H](C(=O)N(C)[C@H](/C=C(\\C)C(=O)N[C@@H](CCC(=O)N[C@@H](CCC(=O)O)C(=O)O)C(=O)N[C@@H](CCC(=O)O)C(=O)O)C(C)C)C(C)(C)C)C(C)(C)c1cn(C)c2ccccc12 [Example 47] (H-[NMeTrp(1,β,β-Me3)][Tle][X1]E(Glu)E-OH)", "Output unit": "×10⁻⁶ cm/s", "Relational operator": "<", "Papp": 0.1}
{"Compound": "C/C(=C\\[C@H](C(C)C)N(C)C(=O)[C@@H](NC(=O)[C@@H](N)C(C)(C)c1cn(C)c2ccccc12)C(C)(C)C)C(=O)N[C@H](CCC(=O)O)C(=O)O [Example 2]", "Output unit": "×10⁻⁶ cm/s", "Relational operator": "=", "Papp": 0.2}
{"Compound": "CN[C@H](C(=O)N[C@H](C(=O)N(C)[C@H](/C=C(\\C)C(=O)N[C@H](CCC(=O)O)C(=O)O)C(C)C)C(C)(C)C)C(C)(C)c1ccc(C(=O)O)cc1 [Example 71]", "Output unit": "×10⁻⁶ cm/s", "Relational operator": "<", "Papp": 0.1}
{"Compound": "CNC(C(=O)N[C@H](C(=O)N(C)[C@H](/C=C(\\C)C(=O)N[C@H](CCC(=O)O)C(=O)O)C(C)C)C(C)(C)C)C(C)(C)c1ccc(C(=O)O)cc1 (some centres unmarked) [Example 70]", "Output unit": "×10⁻⁶ cm/s", "Relational operator": "=", "Papp": 0.9}
